# Lookup of reported Ki keyed by entry
# target or system: Human AhR (Homo sapiens, UniProt P35869)
# Sequence (P35869 11-848): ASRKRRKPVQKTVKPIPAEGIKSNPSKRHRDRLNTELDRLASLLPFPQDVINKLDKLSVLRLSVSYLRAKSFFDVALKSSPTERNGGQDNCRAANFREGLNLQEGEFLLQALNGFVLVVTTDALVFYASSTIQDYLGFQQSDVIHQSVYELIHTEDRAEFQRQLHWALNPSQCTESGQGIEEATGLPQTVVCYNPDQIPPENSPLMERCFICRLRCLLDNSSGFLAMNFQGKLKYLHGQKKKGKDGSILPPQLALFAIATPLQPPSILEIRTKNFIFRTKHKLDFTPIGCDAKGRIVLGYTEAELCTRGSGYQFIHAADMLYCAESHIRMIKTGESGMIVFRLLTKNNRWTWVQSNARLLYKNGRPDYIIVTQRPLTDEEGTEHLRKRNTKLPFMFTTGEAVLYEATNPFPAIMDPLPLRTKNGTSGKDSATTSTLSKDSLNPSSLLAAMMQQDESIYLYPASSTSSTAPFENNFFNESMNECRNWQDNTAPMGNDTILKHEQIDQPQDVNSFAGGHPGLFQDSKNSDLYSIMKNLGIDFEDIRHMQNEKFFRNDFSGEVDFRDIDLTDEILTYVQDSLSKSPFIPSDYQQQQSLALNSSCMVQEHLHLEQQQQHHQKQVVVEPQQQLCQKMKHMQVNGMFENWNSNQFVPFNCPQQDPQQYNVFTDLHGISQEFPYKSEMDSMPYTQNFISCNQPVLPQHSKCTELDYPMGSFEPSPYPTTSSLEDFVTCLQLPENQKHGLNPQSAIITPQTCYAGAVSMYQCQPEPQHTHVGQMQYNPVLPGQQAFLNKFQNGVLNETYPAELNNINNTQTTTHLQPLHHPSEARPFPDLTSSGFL
# protocol text: Competitive binding assay against [3H]-TCDD, recombinant human AhR
Numbers only; they are read as nM.

The examples below pair each entry with its known result.
line_notation=Clc1cc2c(cc1Cl)Oc1c(cc(Cl)c(Cl)c1Cl)O2 readout_units=nM data_value=7.62
line_notation=Clc1cc2oc3cc(Cl)c(Cl)cc3c2cc1Cl readout_units=nM data_value=6.27
line_notation=Clc1cc2oc3c(Cl)c(Cl)c(Cl)cc3c2cc1Cl readout_units=nM data_value=14.1
line_notation=Clc1ccc(-c2cc(Cl)c(Cl)c(Cl)c2)cc1Cl readout_units=nM data_value=736

*Q* Entry under review: "Clc1cc2c(cc1Cl)Oc1cc(Cl)c(Cl)cc1O2" . Reported Ki?
*A* 15.4

###

# target or system: Rat AhR (Rattus norvegicus)
# protocol text: [3H]-TCDD saturation binding, recombinant rat AhR in Sf9 cytosol
# reported conditions: Kd (typical experiment, Fig. 5A), MOI of 0.1, typical experiment
readout: Kd

*Q* Entry under review: "Clc1cc2c(cc1Cl)Oc1cc(Cl)c(Cl)cc1O2" . Reported Kd?
*A* 1.35 nM

###

# target or system: Rat AhR (Rattus norvegicus)
# protocol text: Competitive binding assay against [3H]-TCDD, recombinant rat AhR
readout: pKi
As a rule, pKi stands for the negative log10 of the concentration, concentration in M.

line_notation=Clc1cc2c(cc1Cl)Oc1cc(Cl)c(Cl)cc1O2 data_value=9.26

*Q* Entry under review: "Clc1cc2oc3c(Cl)c(Cl)c(Cl)cc3c2cc1Cl" . Reported pKi?
*A* 8.82

###

# target or system: UniProt:P35869
# protocol text: [3H]-TCDD saturation binding, recombinant human AhR in Sf9 cytosol
# reported conditions: Kd for TCDD, human AhR, optimised conditions, n=6
readout: pKd
As a rule, pKd stands for the negative log10 of the concentration, concentration in M.

*Q* Entry under review: "Clc1cc2c(cc1Cl)Oc1cc(Cl)c(Cl)cc1O2" . Reported pKd?
*A* 8.56

###

# target or system: AhR in rat liver cytosol (Rattus norvegicus, UniProt P41738)
# Sequence (P41738 10-853): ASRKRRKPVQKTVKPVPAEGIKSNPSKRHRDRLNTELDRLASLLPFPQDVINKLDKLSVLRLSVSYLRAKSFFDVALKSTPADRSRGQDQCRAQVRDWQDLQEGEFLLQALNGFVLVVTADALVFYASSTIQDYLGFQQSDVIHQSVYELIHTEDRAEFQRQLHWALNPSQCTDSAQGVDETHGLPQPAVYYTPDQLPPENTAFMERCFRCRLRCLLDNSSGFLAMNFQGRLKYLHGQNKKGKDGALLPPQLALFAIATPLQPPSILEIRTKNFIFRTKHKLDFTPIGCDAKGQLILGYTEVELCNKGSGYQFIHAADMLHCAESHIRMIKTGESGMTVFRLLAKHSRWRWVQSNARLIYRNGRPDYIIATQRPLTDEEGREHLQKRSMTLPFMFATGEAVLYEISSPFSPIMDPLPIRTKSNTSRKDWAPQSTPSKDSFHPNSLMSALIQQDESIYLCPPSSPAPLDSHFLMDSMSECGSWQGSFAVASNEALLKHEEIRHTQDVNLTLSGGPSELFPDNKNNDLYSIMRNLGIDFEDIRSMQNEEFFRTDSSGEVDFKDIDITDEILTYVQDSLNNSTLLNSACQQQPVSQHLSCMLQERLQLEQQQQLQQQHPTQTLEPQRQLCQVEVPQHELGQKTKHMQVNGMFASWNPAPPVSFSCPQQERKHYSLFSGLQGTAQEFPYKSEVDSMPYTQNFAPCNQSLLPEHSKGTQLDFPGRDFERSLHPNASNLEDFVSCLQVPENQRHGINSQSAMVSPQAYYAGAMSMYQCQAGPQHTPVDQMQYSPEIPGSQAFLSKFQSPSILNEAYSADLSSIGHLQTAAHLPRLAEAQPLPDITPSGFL
readout: Kd (nM)
Numbers only; they are read as nM.

*Q* Entry under review: "Clc1cc2c(cc1Cl)Oc1cc(Cl)c(Cl)cc1O2" . Reported Kd?
*A* 1
